target.desc: PI3Kbeta (Homo sapiens, UniProt P42338)
Construct: His (N); host or cells: SF9 insect cells (baculovirus)
Sequence (P42338 whole entry, one chain of several): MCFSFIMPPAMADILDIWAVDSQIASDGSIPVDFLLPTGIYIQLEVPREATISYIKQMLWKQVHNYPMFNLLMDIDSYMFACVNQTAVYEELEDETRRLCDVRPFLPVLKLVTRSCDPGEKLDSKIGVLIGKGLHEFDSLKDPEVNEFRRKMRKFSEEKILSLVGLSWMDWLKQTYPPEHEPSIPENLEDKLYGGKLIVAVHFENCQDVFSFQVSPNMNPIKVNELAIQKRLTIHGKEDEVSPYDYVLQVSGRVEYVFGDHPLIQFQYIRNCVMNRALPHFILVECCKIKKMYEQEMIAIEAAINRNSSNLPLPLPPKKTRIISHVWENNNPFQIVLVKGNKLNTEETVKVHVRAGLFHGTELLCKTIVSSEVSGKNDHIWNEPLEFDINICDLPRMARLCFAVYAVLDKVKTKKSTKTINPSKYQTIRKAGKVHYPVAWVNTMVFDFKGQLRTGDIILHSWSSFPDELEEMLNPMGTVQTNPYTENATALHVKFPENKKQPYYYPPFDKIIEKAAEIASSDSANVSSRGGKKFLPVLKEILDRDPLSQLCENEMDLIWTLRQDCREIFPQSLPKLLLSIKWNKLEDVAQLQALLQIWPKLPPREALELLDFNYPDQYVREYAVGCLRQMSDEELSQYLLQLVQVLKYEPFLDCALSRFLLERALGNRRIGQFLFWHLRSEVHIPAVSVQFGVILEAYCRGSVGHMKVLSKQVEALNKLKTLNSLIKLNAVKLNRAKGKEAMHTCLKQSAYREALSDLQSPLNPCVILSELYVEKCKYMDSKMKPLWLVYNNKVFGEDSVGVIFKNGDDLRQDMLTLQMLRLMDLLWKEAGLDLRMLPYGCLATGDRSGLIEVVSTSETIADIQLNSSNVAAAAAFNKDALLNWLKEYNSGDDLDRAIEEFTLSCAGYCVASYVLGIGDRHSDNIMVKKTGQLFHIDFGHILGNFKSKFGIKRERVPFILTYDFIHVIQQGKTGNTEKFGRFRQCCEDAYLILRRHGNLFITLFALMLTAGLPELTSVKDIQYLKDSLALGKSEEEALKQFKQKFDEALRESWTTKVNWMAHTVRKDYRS
method: Human PI3K beta enzyme assay (HTRF, as for PI3K alpha)
Type: biochemical
test.context: at 1.11 μM; read-out: PI3Kbeta % inh
Listed below: inhibition at 1.11 µM values for each entry.
outcome.measure: inhibition at 1.11 µM (%)

>>> meas_value("O=C1OC2(CCC(=O)c3sc(-c4ccncc4)cc32)c2ccc(Cl)cc21 (centres unmarked) [Compound 14]")
31.9
>>> meas_value("Cc1cc(C2CNC(=O)c3sc(N4CCOCC4)cc32)ccc1Cl (centres unmarked) [Compound 194]")
113
>>> meas_value("O=C1CCCC(c2ccc(Cl)cc2)c2cc(-c3ccncc3)sc21 (centres unmarked) [Compound 19]")
86.5
>>> meas_value("O=Cc1c(N2CCOCC2)sc2c1C(c1ccc(Cl)cc1)CNC2=O (single isomer, unassigned) [Compound 193]")
79.1
>>> meas_value("COC(=O)c1[nH]c(=O)c2sc(N3CCOCC3)cc2c1-c1ccc(Cl)c(Cl)c1 [Compound 184]")
77.5
>>> meas_value("O=C1CC(c2ccc(Cl)cc2)c2cc(-c3ccncc3)sc21 (centres unmarked) [Compound 23]")
92.8
>>> meas_value("N#Cc1c(N2CCOCC2)sc2c1C(c1c(F)cc(Cl)cc1F)CCNC2=O (centres unmarked) [Compound 155]")
113
>>> meas_value("NC(=O)c1cc(C2CCNC(=O)c3sc(N4CCOCC4)nc32)ccc1Cl (centres unmarked) [Compound 167]")
81.2
>>> meas_value("COC(=O)C1C(=O)c2sc(N3CCOCC3)cc2C1c1ccc(Cl)c(Cl)c1 (centres unmarked) [Compound 139]")
95.6
>>> meas_value("O=C1CC(c2ccc(Cl)c(Cl)c2)c2cc(N3CCOCC3)sc21 (centres unmarked) [Compound 171]")
106
>>> meas_value("N#Cc1c(N2CCOCC2)sc2c1C(c1c(F)cc(Cl)cc1F)CNC2=O (centres unmarked) [Compound 151]")
103
>>> meas_value("CC(=O)Nc1cc(-c2cc3c(s2)C(=O)NCCC3c2ccc(Cl)cc2)ccn1 (centres unmarked) [Compound 1]")
100
>>> meas_value("O=C1CC(c2ccc(Cl)cc2)c2cc(-c3ccncc3)sc2N1 (centres unmarked) [Compound 182]")
61.2
>>> meas_value("O=C1CCC(O)C(c2ccc(Cl)cc2)c2cc(-c3ccncc3)sc21 (centres unmarked) [Compound 210]")
73
>>> meas_value("N#Cc1c(N2CCOCC2)sc2c1C(c1ccc(Cl)cc1)NC2=O (centres unmarked) [Compound 134]")
93.8
>>> meas_value("C=CCC1(C(=O)OC)NC(=O)c2sc(N3CCOCC3)cc2C1c1ccc(Cl)c(Cl)c1 (centres unmarked) [Compound 154]")
75.5
>>> meas_value("CNC(=O)[C@@H]1NC(=O)c2sc(-c3ccnc(C)c3)cc2[C@H]1c1ccc(Cl)cc1 (relative stereo) [Compound 138]")
64.6

====

target.desc: PI3Kdelta (Homo sapiens, UniProt O00329)
Construct: His (N); host or cells: SF9 insect cells (baculovirus)
Sequence (O00329 whole entry): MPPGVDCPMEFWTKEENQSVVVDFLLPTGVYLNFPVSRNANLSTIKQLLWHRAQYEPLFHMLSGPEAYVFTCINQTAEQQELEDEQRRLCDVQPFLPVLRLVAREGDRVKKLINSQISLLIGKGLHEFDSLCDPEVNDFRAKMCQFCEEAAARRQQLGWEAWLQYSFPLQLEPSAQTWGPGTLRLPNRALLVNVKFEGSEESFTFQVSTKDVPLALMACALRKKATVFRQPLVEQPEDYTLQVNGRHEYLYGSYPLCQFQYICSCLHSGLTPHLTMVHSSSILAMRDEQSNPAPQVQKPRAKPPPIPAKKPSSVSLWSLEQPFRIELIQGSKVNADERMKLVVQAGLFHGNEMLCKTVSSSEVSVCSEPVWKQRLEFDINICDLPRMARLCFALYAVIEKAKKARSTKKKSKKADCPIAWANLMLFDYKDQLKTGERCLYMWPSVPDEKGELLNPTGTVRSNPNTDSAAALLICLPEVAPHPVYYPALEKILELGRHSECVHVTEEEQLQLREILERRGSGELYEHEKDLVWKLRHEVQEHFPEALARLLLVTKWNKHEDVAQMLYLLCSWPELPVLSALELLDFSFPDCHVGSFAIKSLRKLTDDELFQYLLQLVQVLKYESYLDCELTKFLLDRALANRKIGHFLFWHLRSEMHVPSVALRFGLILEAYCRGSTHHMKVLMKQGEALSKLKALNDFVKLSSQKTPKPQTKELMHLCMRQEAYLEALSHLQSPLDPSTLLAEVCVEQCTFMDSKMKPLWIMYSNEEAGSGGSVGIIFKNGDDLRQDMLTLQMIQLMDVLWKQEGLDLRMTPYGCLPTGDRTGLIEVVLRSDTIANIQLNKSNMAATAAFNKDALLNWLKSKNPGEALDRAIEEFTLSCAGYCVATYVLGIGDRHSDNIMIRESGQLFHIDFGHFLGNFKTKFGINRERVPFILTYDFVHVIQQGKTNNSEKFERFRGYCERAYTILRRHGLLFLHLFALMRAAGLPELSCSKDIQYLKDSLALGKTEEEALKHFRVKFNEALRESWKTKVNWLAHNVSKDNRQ
Sequence (P27986 whole entry partner): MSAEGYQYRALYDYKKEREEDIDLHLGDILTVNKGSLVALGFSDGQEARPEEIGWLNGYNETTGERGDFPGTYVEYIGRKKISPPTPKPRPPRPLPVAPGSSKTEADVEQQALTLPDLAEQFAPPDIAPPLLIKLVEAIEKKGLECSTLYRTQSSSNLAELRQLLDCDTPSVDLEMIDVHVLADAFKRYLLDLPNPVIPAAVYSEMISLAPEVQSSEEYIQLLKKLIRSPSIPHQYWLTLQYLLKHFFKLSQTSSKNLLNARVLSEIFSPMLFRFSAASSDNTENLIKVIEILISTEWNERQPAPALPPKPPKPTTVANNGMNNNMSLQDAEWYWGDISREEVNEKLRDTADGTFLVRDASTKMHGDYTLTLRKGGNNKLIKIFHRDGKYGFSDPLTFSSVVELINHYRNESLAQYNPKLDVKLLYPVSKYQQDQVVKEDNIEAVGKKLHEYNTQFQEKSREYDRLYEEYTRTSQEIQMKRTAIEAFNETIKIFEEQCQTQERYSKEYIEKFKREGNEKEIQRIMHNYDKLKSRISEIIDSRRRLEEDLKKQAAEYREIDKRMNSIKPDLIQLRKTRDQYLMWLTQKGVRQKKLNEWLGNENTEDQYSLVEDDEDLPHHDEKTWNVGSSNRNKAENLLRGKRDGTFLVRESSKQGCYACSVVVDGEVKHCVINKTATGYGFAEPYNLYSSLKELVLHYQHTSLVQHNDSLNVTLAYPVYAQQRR
method: Human PI3K delta enzyme assay (HTRF, as for PI3K alpha)
Type: biochemical
test.context: at 1.11 μM
Source text: The catalytic subunits of PI3Ks are cloned into either pDEST8(p110 alpha) or pDEST10(p110beta, p110delta, and p110gamma) as N-terminal His tagged fusion proteins using the Gateway system (Invitrogen, catalog#11804-010 for pDEST8 and 11806-015 for pDEST10). The sequences are verified before recombinant protein expression using the Baculovirus Expression System with Gateway® Technology. The accession numbers for the subunits are as follows: […]
Give Criterion met when the value for PI3Kdelta % inh is at least 40%. Give Criterion not met when it is less.

>>> label_value("O=C1CCC(O)C(c2ccc(Cl)cc2)c2cc(-c3ccncc3)sc21 (stereo not drawn)")
"Criterion not met"
>>> label_value("O=C1NCCC(c2ccc(Cl)cc2)c2cc(-c3ccncc3)sc21 (single isomer, unassigned) [Compound 25]")
"Criterion not met"
>>> label_value("O=C1NCC(c2ccc(Cl)cc2)c2cc(-c3ccncc3)sc21 (stereo not drawn)")
"Criterion not met"
>>> label_value("O=S1(=O)NCC(O)(c2ccc(Cl)cc2)c2cc(-c3ccncc3)sc21 (single isomer, unassigned) [Compound 9]")
"Criterion met"
>>> label_value("CCCOC(=O)[C@@H]1NC(=O)c2sc(N3CCOCC3)cc2[C@H]1c1ccc(Cl)cc1")
"Criterion not met"
>>> label_value("NC(=O)[C@@H]1NC(=O)c2sc(N3CCOCC3)cc2[C@H]1c1ccc(Cl)cc1")
"Criterion met"
>>> label_value("O=S1(=O)NCC(O)(c2ccc(Cl)cc2)c2cc(-c3ccncc3)sc21 (single isomer, unassigned) [Compound 2]")
"Criterion met"
>>> label_value("O=C1CC(c2ccc(Cl)cc2)c2cc(N3CCOCC3)sc21 (stereo not drawn)")
"Criterion met"
>>> label_value("O=C1NCCC(c2ccc(Cl)cc2)c2cc(-c3ccncc3)sc21 (single isomer, unassigned) [Compound 21]")
"Criterion met"

====

target.desc: VPS34 (Homo sapiens, UniProt Q8NEB9)
Construct: GST (N); host or cells: SF9 insect cells (baculovirus)
Sequence (Q8NEB9 whole entry): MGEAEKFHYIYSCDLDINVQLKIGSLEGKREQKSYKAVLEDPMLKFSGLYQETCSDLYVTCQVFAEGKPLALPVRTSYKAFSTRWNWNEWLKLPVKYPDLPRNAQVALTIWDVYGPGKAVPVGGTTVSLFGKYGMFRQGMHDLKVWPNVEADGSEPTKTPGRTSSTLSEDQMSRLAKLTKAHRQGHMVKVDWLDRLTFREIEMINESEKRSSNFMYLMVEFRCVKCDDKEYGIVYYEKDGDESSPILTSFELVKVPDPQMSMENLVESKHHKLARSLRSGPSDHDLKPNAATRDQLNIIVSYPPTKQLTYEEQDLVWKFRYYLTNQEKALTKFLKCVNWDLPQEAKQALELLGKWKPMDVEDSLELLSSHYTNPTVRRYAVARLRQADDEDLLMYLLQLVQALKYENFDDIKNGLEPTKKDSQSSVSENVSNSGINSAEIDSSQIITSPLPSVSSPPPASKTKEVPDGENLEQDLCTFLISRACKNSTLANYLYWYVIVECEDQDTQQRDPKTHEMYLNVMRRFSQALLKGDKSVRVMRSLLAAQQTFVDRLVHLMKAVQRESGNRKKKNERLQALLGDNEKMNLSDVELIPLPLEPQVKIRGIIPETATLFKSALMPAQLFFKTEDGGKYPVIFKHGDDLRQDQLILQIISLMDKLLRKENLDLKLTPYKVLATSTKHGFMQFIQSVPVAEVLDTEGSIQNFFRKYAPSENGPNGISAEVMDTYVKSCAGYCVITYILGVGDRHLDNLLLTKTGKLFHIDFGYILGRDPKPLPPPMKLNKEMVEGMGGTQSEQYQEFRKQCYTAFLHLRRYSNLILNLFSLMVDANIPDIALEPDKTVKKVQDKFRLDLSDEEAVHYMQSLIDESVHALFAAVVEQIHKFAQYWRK
method: Human VPS34 enzyme assay (Adapta Universal Kinase Assay)
Assay type: biochemical
test.context: 1 h, read-out: VPS34 % ihn
outcome.measure: inhibition at 1.11 µM (%)

>>> meas_value("Clc1ccc(C2CCc3cn[nH]c3-c3sc(-c4ccncc4)cc32)cc1 (stereo not drawn)")
10.1
>>> meas_value("O=C1NCCC(c2ccc3ccccc3c2)c2nc(N3CCOCC3)sc21 (stereo not drawn)")
42.1
>>> meas_value("CC1(C)C(=O)c2sc(-c3ccncc3)cc2C1c1ccc(Cl)cc1 (stereo not drawn)")
9.65
>>> meas_value("O=C1CC(c2ccc(Cl)cc2)c2cc(-c3ccncc3)sc2N1 (stereo not drawn)")
14
>>> meas_value("COC(=O)[C@@H]1C(=O)c2sc(-c3ccncc3)cc2[C@H]1c1ccc(Cl)cc1 (relative stereo)")
1.4
>>> meas_value("O=C1CC(c2ccc(Cl)c(Cl)c2)c2cc(N3CCOCC3)sc21 (stereo not drawn)")
16.8
>>> meas_value("O=C1CC(c2cccc(Cl)c2)c2cc(N3CCOCC3)sc21 (stereo not drawn)")
26.8
>>> meas_value("CC1(C)C(=O)c2sc(N3CCOCC3)cc2C1c1ccc(Cl)cc1 (stereo not drawn)")
10.8
>>> meas_value("O=C1CC(c2ccc3ccccc3n2)c2cc(N3CCOCC3)sc21 (stereo not drawn)")
9

====

target.desc: PI3Kalpha (Homo sapiens, UniProt P42336)
Construct: His (N); host or cells: SF9 insect cells (baculovirus)
Sequence (P42336 whole entry): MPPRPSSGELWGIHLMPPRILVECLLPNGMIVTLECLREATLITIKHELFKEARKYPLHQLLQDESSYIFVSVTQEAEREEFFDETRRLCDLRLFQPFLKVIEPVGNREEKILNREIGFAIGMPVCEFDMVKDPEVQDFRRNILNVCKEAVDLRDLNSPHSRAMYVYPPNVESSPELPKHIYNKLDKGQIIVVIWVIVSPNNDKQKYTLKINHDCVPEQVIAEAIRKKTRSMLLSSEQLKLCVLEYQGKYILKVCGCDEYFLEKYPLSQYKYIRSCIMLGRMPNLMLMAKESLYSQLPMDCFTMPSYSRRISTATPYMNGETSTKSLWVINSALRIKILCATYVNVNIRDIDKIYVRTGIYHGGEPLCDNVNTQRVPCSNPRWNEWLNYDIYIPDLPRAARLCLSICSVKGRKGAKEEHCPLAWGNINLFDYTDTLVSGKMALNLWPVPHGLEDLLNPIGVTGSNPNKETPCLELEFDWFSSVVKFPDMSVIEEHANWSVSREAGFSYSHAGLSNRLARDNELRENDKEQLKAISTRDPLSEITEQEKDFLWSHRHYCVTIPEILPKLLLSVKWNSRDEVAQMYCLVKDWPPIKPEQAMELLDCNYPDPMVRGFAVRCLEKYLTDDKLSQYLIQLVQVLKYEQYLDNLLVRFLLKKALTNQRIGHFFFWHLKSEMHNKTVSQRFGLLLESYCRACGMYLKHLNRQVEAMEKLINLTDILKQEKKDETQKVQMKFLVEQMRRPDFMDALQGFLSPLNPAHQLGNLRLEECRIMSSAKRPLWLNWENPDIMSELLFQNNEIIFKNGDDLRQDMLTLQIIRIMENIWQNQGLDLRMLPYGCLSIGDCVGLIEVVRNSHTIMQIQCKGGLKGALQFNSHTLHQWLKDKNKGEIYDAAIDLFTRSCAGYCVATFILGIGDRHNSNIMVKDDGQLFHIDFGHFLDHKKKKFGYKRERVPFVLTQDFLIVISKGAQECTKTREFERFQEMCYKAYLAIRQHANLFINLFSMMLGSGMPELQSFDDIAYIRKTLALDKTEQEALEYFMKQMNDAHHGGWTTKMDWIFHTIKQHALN
Sequence (P27986 whole entry partner): as the sequence (P27986 whole entry partner) above
method: Human PI3Kα enzyme assay (HTRF)
Format: biochemical
test.context: read-out: PI3Kalpha % inh
Give true (1) when the value for inhibition at 1.11 µM is at least 20%. Give false (0) when it is less.

>>> label_value("CN(C)C(=O)[C@@H]1NC(=O)c2sc(N3CCOCC3)cc2[C@H]1c1ccc(Cl)cc1")
"true (1)"
>>> label_value("O=C1CC(c2ccc(Cl)cc2)c2cc(-c3ccncc3)sc21 (centres unmarked)")
"false (0)"
>>> label_value("C[Si](C)(C)CCOCN1CC(O)(c2ccc3ccccc3c2)c2cc(N3CCOCC3)sc2S1(=O)=O (centres unmarked)")
"true (1)"
>>> label_value("CN1CC(c2ccc(Cl)cc2)c2cc(-c3ccncc3)sc2C1=O (centres unmarked)")
"false (0)"
>>> label_value("CNC(=O)[C@H]1NC(=O)c2sc(N3CCOCC3)cc2[C@H]1c1ccc(Cl)cc1")
"true (1)"
>>> label_value("O=C1OC2(CCC(=O)c3sc(-c4ccncc4)cc32)c2ccc(Cl)cc21 (centres unmarked)")
"false (0)"
>>> label_value("COC(=O)c1cc(C2CCNC(=O)c3sc(N4CCOCC4)nc32)ccc1Cl (centres unmarked)")
"false (0)"
>>> label_value("O=C(O)CN1CC(c2ccc(Cl)cc2)c2cc(N3CCOCC3)sc2C1=O (centres unmarked)")
"false (0)"

====

target.desc: PI3Kbeta (Homo sapiens)
Construct: His (N); host or cells: SF9 insect cells (baculovirus)
method: Human PI3K beta enzyme assay (HTRF, as for PI3K alpha)
Format: biochemical
test.context: at 1.11 μM
Description: The catalytic subunits of PI3Ks are cloned into either pDEST8(p110 alpha) or pDEST10(p110beta, p110delta, and p110gamma) as N-terminal His tagged fusion proteins using the Gateway system (Invitrogen, catalog#11804-010 for pDEST8 and 11806-015 for pDEST10). The sequences are verified before recombinant protein expression using the Baculovirus Expression System with Gateway® Technology. The accession numbers for the subunits are as follows: […]
Listed below: PI3Kbeta % inh values for each entry.
outcome.measure: PI3Kbeta % inh (%)

>>> meas_value("CCCOC(=O)[C@@H]1NC(=O)c2sc(N3CCOCC3)cc2[C@H]1c1ccc(Cl)cc1")
87.47
>>> meas_value("O=C1CC(c2ccc(Cl)cc2)c2cc(N3CCOCC3)sc21 (centres unmarked)")
101.66
>>> meas_value("CCNC(=O)[C@@H]1NC(=O)c2sc(N3CCOCC3)cc2[C@H]1c1ccc(Cl)cc1")
66.37
>>> meas_value("O=C1NCCC(c2ccc3ccccc3c2)c2nc(N3CCOCC3)sc21 (centres unmarked) [Compound 209]")
114.75
>>> meas_value("O=C1N[C@@H](C(=O)NCCO)[C@H](c2ccc(Cl)cc2)c2cc(N3CCOCC3)sc21 [Compound 153]")
87.14
>>> meas_value("CNC(=O)[C@@H]1NC(=O)c2sc(N3CCOCC3)cc2[C@H]1c1ccc(Cl)cc1 [Compound 212]")
65.59
>>> meas_value("O=C1N[C@@H](CO)CC(c2ccc3ccccc3c2)c2nc(N3CCOCC3)sc21 (some centres unmarked) [Compound 202]")
113.55
>>> meas_value("N#Cc1c(N2CCOCC2)sc2c1C(c1ccc(Cl)c(Cl)c1)CCNC2=O (centres unmarked) [Compound 116]")
66.61
